Hello, the source for this data is patent US20170273922A1, in case you need it.

- Assay text: MTT assay (cytotoxicity), DU145 cells
- Format: cell-based
- Experimental conditions: human, DU145 cells, Table 2.4
Value kind: IC50 at 72 h (µM)
Give bare numbers, in µM.

Some solved cases for reference:
Task: Recorded IC50 at 72 h for O=C(N/C=C/c1cccc(C(F)(F)F)c1)NCc1ccc([N+](=O)[O-])cc1 [Compound 447] , please?
Output: 8

Task: Recorded IC50 at 72 h for O=C(N/C=C/c1cccs1)Nc1cccc(C(F)(F)F)c1 [Compound 420] , please?
Output: 12.3

Task: Recorded IC50 at 72 h for O=C(N/C=C/c1cccs1)Nc1ccc([N+](=O)[O-])c(C(F)(F)F)c1 [Compound 419] , please?
Output: 6.9

---
Task: Recorded IC50 at 72 h for O=C(N/C=C/c1ccc2c(c1)OCO2)Nc1ccc([N+](=O)[O-])c(C(F)(F)F)c1 [Compound 444] , please?
Output: 14
